biological target: mGluR5 receptors (Rattus norvegicus); construct: Primary astrocyte cultures are prepared from cortices of newborn rats; endogenous in cells; host or cells: primary cortical astrocytes from Sprague-Dawley rat pups (2-4 d old); experiment: Cytosolic calcium studies with astrocytes (FLIPR), functional assay of mGluR5 receptors; format: cell-based; conditions: Table A1, left shift of quisqualate EC50 in the presence and absence of 10 µM modulator
Sequence (P31424 21-1203): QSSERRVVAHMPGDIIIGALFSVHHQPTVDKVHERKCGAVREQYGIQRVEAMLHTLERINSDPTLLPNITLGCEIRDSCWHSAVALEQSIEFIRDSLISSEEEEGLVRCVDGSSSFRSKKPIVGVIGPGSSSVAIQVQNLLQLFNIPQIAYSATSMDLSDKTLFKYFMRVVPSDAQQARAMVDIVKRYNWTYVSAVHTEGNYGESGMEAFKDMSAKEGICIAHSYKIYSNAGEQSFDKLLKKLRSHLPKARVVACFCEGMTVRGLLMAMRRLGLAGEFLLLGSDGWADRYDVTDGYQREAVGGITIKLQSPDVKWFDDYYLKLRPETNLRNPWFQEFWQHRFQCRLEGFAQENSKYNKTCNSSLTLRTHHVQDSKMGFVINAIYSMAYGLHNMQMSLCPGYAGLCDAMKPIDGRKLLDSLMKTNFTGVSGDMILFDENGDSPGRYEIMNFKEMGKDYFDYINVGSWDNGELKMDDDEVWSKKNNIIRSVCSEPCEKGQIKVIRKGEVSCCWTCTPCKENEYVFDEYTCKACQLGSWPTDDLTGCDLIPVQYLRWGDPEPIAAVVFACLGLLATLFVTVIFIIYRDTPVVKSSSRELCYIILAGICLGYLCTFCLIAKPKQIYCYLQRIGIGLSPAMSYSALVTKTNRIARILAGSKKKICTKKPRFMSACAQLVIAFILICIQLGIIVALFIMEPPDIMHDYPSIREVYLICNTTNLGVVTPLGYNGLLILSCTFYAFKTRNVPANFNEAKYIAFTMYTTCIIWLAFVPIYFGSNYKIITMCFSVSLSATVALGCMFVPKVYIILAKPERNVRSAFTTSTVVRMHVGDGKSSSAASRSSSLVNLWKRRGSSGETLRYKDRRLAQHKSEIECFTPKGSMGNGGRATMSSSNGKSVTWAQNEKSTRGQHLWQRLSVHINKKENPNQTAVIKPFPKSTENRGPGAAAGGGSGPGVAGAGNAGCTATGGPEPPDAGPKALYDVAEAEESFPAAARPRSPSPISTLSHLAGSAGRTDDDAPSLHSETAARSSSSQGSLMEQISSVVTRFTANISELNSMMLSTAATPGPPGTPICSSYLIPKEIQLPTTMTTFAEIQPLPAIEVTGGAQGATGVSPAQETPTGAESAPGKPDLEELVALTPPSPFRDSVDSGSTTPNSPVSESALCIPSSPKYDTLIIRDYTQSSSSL
measurementLabel: r left shift

q: Give the reported r left shift for COC1CCCc2ncc(C#Cc3ccccc3)cc21 (single isomer, unassigned) [Example 2] (system: mGluR5 receptors (Rattus norvegicus)).
a: 4.4-fold

q: Give the reported r left shift for `CN(C)S(=O)(=O)N1CCc2ncc(C#Cc3ccccc3)cc2C1` (system: mGluR5 receptors (Rattus norvegicus)).
a: 1.8-fold

q: Give the reported r left shift for `Cn1ncc2c1-c1cc(C#Cc3ccccc3)cnc1CC2` (system: mGluR5 receptors (Rattus norvegicus)).
a: 2.2-fold

q: Give the reported r left shift for COC(=O)N1CC2CCc3ncc(C#Cc4cccc(F)c4)cc3C2C1 (stereo not drawn) (system: mGluR5 receptors (Rattus norvegicus)).
a: 1.5-fold

q: Give the reported r left shift for `O=S(=O)(N1CCCC1)N1CCc2ncc(C#Cc3ccccc3)cc2C1` (system: mGluR5 receptors (Rattus norvegicus)).
a: 2.8-fold

Each recorded value in this set is attributed to patent EP2650284A1.
